target: IMP-1 (Serratia marcescens); assay: biochemical; assay type: biochemical; details: fluorescence assay, CCF2-FA substrate, 2 pM enzyme, 2 hours at 25° C.; read-out: IMP-1 IC50
recordedMetric: IC50 (nM)
Answers are plain numbers, in nM.

Some compounds with recorded IC50:
1. NS(=O)(=O)c1c(S(=O)(=O)N[C@@H]2CCNC2)ccc(-c2cnc3cc[nH]c3c2)c1-c1nn[nH]n1 | 1.13
2. Nc1nc2c(-c3ccc(S(=O)(=O)N[C@H]4CN[C@H](CO)C4)c(S(N)(=O)=O)c3-c3nnn[nH]3)cccc2[nH]1 | 0.509
3. C[C@H](CN)NS(=O)(=O)c1ccc(-c2cccc(N)n2)c(-c2nn[nH]n2)c1S(N)(=O)=O | 0.704

Give measured IC50 for every item shown.
1. NCCNS(=O)(=O)c1ccc(-c2cccc(NC(=O)[C@H](N)CO)c2)c(-c2nn[nH]n2)c1S(N)(=O)=O
2. Cl.Cl.NCCCNS(=O)(=O)c1ccc(-c2ccc(N)nc2)c(-c2nn[nH]n2)c1S(N)(=O)=O

1. 3.46
2. 0.576

###

biological target: NDM-1 (Klebsiella pneumoniae, UniProt C7C422); experiment: biochemical; type: biochemical; conditions: fluorescence assay, CCF2-FA substrate, 1 pM enzyme, 2 hours at 25° C.; read-out: NDM-1 IC50
Sequence (C7C422 whole entry, looked up, species assumed): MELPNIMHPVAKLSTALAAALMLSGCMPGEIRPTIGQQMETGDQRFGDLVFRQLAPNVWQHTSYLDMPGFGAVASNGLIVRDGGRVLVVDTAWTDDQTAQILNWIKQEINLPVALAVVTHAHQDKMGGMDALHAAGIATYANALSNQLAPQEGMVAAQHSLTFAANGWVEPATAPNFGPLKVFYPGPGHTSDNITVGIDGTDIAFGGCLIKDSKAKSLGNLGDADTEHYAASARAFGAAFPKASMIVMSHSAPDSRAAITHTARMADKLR
recordedMetric: IC50 (pM)
Numbers only, in pM.

Take a look at these entries with their results.
1) Nc1nc2c(-c3ccc(S(=O)(=O)N[C@H]4CNC[C@@H]4F)c(S(N)(=O)=O)c3-c3nnn[nH]3)cccc2s1 | 35.7
2) NCC(CN)NS(=O)(=O)c1ccc(-c2ccnc(N)c2)c(-c2nn[nH]n2)c1S(N)(=O)=O | 7690
3) CNC(=O)CNS(=O)(=O)c1ccc(-c2cccc3sc(N)nc23)c(-c2nnn[nH]2)c1S(N)(=O)=O | 51.1

Notebook entry, NDM-1 (Klebsiella pneumoniae, UniProt C7C422) assay: IC50 of `NCc1nc(-c2cccc(-c3ccc(S(=O)(=O)N[C@H]4CNC[C@H]4N)c(S(N)(=O)=O)c3-c3nn[nH]n3)c2)c[nH]1` = ? 95.4

###

biological target: IMP-1 (Serratia marcescens, UniProt P52699); experiment: biochemical; format: biochemical; settings: fluorescence assay, CCF2-FA substrate, 2 pM enzyme, 2 hours at 25° C.; read-out: IMP-1 IC50
Sequence (P52699 whole entry, looked up, species assumed): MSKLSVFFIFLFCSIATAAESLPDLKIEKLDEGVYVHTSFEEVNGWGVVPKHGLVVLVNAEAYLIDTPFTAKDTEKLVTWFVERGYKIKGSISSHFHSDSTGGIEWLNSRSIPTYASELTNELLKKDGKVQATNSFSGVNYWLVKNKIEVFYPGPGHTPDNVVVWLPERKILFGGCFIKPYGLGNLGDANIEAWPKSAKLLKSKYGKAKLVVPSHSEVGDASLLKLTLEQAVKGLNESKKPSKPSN
Exercise: for every item that follows, state its recorded pIC50.
Give bare numbers, as −log10 of the molar value.

Solved cases below.
1. Nc1nc(-c2cccc(-c3ccc(S(=O)(=O)N[C@H]4CCNC4)c(S(N)(=O)=O)c3-c3nn[nH]n3)c2)c[nH]1 | 8.76
2. NCCN1CC[C@H](NS(=O)(=O)c2ccc(-c3cccc4[nH]c(N)nc34)c(-c3nn[nH]n3)c2S(N)(=O)=O)C1 | 8.96

Now for the compound whose pIC50 we want.
So what's the measured pIC50 for this one? `Nc1nc2c(-c3ccc(S(=O)(=O)NCC(=O)O)c(S(N)(=O)=O)c3-c3nn[nH]n3)cccc2s1` 9.15

###

target: IMP-1 (Serratia marcescens, UniProt P52699); test: biochemical; format: biochemical; conditions: fluorescence assay, CCF2-FA substrate, 2 pM enzyme, 2 hours at 25° C.; read-out: IMP-1 IC50
Assign IC50 to each entry below.
Numbers only, in nM.

Sample records with IC50:
1. CC1(NS(=O)(=O)c2ccc(-c3cccc4[nH]c(N)nc34)c(-c3nn[nH]n3)c2S(N)(=O)=O)CNC1 | 0.642
2. C[C@H](CN)NS(=O)(=O)c1ccc(-c2cccc3[nH]c(CN)nc23)c(-c2nn[nH]n2)c1S(N)(=O)=O | 0.536
3. Nc1nc2c(-c3ccc(S(=O)(=O)N[C@@H]4CNC[C@H]4O)c(S(N)(=O)=O)c3-c3nnn[nH]3)cccc2[nH]1 | 1.39

I'm hoping you can list IC50 for every molecule here, please.
1. C[C@@H](N)CNS(=O)(=O)c1ccc(-c2ccc3nccn3c2)c(-c2nn[nH]n2)c1S(N)(=O)=O
2. Nc1nc2c(-c3ccc(S(=O)(=O)N[C@H]4CCNC4)c(S(N)(=O)=O)c3-c3nn[nH]n3)cc(F)cc2[nH]1

1: 1.15; 2: 0.533
